system: T47D; experiment: NCI tumour cell line growth inhibition, 48 h
Active and inactive are the calls of the source. Rule as the data show it: active = GI50 up to about 1.1 µM and inactive = higher.
Outcome codes: true for active, false for inactive

molecule	tgt	class
O=C(/C=C1\C[C@H]2C=Nc3ccccc3C(=O)N2C1)NCCCNC(=O)/C=C1\C[C@H]2C=Nc3ccccc3C(=O)N2C1	T47D	false
O=C1Sc2cc3ccccc3cc2C(=O)Sc2ccc(Br)cc21	T47D	false
N#Cc1c(N)nc2[nH]nc(N)c2c1-c1ccccc1	T47D	true
COc1ccc2c(C)cc(N/N=C/c3sccc3C)nc2c1	T47D	false
COC1C=COC2(C)Oc3c(C)c(O)c4c(c3C2=O)/C(=N/C2CCC(O)OC2C)C=C(NC(=O)/C(C)=C\C(=O)C2CC2C(O)C(C)C(O)C(C)C(OC(C)=O)C1C)C4=O (configuration not stated)	T47D	false
CN(C)Cc1cc(/N=N/c2ccc(Cl)c(Cl)c2)ccc1O	T47D	false
CC1CC[C@@]2(OC1)OC1C[C@H]3[C@@H]4CCC5CC(O)CC[C@]5(C)[C@H]4C/C(=N\N(C)C)[C@]3(C)C1[C@@H]2C (some centres not stated)	T47D	false
OC1COC(n2c3ccc(Br)cc3c3ccc4c5ccccc5[nH]c4c32)C(O)C1O (configuration not stated)	T47D	false
O=C1CSC(c2ccccc2O)N1c1ccc(Oc2ccc(Cl)cc2)c(Cl)c1 (configuration not stated)	T47D	false
Clc1nc(-c2ccccc2)nc(Cl)c1Cl	T47D	false
Cc1ccc(N(C=O)c2c([N+](=O)[O-])cc([N+](=O)[O-])c3c2=[N+]([O-])CN=3)cc1	T47D	false
Cc1nc(-c2cc3cc(Cl)ccc3oc2=O)cc2c1c(=O)oc1ccc(Cl)cc12	T47D	false
CCCCCCCCCCCCCCCC(=O)ON1C(=S)NC(C)(c2ccccc2)C1=S (configuration not stated)	T47D	false
CNC(=S)NN=C1NCCCN1	T47D	false
OCC1OC(n2nc(-c3ccccc3)nc2-c2cnccn2)C(O)C1O (configuration not stated)	T47D	false
CN1C(NCCO)=NS(=O)(=O)c2ccccc21	T47D	false
Cc1cc(=O)oc2c(CNC(Cc3ccccc3)C(=O)O)c(O)ccc12 (configuration not stated)	T47D	false
COc1c(-c2cc(C)c(Cl)c(=O)[nH]2)c(O)c(OC)c2occc12	T47D	false
CNC(=S)NNc1ncnc2c1c(-c1ccc(Cl)cc1)cn2-c1ccc(C)cc1	T47D	false
COc1ccccc1NC(=O)C1=C(C)NC(C)=C(C(=O)Nc2ccccc2OC)C1c1ccco1	T47D	false
CC(=O)Nc1ccc(-c2nc3ccccc3s2)cc1Cl	T47D	true
Cc1sc(NC=C2C(=O)CC(C)(C)CC2=O)nc1-c1ccccc1	T47D	false

---

tested on: HOP-62; test: NCI tumour cell line growth inhibition, 48 h
Active and inactive are the calls of the source. Cut-off read from the data, not from the text of the source: active = GI50 up to about 1.1 µM and inactive = higher.
outcome measure: GI50

In [3]: df
Out[3]:
                                   compound     tgt  outcome_measure             measured
0  CCCCCCCCCCCCCC(=O)OCC1OC(n2cc(F)c(=O)[nH]c2=O)C(N)C(OC(=O)CCCCCCCCCCCCC)C1O (stereo unspecified)  HOP-62             GI50  > 100 µM (inactive)
1  CCOC1=C2C(C)(CCC3[C@@]4(C)C=CC(=O)C(C)(C)C4CC(O)[C@@]23C)C(c2ccoc2)C1=O (stereo partly specified)  HOP-62             GI50   20.5 µM (inactive)
2  COC(=O)[C@@H](C)[C@H]1CC[C@@](C)(CCC2=C(C)CC3C=C(C)CCC3C2(C)C)OO1 (stereo partly specified)  HOP-62             GI50   2.06 µM (inactive)
3                  COC(=O)c1cccc(C(=O)OC)c1  HOP-62             GI50  > 100 µM (inactive)
4                     c1cncc(CNCc2cccnc2)c1  HOP-62             GI50  > 100 µM (inactive)
5               O=c1[nH]c2c(c(=O)[nH]1)SSC2  HOP-62             GI50   10.6 µM (inactive)

---

tested on: BT-549; experiment: NCI tumour cell line growth inhibition, 48 h
Calls of active or inactive are those of the source. Cut-off read from the data, not from the text of the source: active = GI50 up to about 1.1 µM and inactive = higher.
outcome measure: GI50

                                    compound             measured
 0            CN1C(NCCO)=NS(=O)(=O)c2ccccc21  > 100 µM (inactive)
 1  O=C1c2ccccc2C(O)(O)C1(O)C1(O)C(=O)c2ccccc2C1(O)O (centres undefined)   55.6 µM (inactive)
 2  COc1ccccc1C(O)[C@@H]1C[C@@H]2[C@H]3CC[C@@](C)([C@@H]2O1)C3(C)C (some centres undefined)   18.1 µM (inactive)
 3  O=C(n1c(=O)n(-c2ccc([N+](=O)[O-])cc2)c(=O)n1C(=O)C(Cl)(Cl)Cl)C(Cl)(Cl)Cl  > 100 µM (inactive)
 4  Cc1nc(-n2[nH]c(C)c(CCO)c2=O)[nH]c(=O)c1CCO  > 100 µM (inactive)
 5    O=C1Sc2cc3ccccc3cc2C(=O)Sc2ccc(Br)cc21   3.29 µM (inactive)
 6  CCOC(=O)C1CCC(=O)N1C(=O)c1ccccc1 (centres undefined)  > 100 µM (inactive)
 7  N#Cc1cnc(N)nc1NCC1(CO)CC(CCc2ccccc2)C1 (centres undefined)  > 100 µM (inactive)
 8  CN1C(=O)C(/C=N/NC(=O)c2cccnc2)C(N)N(C)C1=O (centres undefined)  > 100 µM (inactive)
 9  CC(=O)Nc1ccc2cc3c(nc2n1)c1cccnc1n3S(=O)(=O)c1ccccc1  > 100 µM (inactive)
10  CCOc1ccc2c(c1)C(/C(C(Cl)=C(Cl)Cl)=[N+](/[O-])OC(=O)c1ccccc1)=N2   25.4 µM (inactive)
11  S=C1NC2=C(COC/C2=C\c2ccccc2Cl)C(c2ccccc2Cl)N1 (centres undefined)   48.8 µM (inactive)
12  CC[C@@H]1CC[C@@H]2[C@H](CC[C@]3(C)[C@@H](O)CC[C@@H]23)[C@H]1C(=O)O  > 100 µM (inactive)
13  CCOC(=O)NC(Nc1ccc(S(=O)(=O)Nc2ncccn2)cc1)(C(=O)OCC)C(F)(F)F (centres undefined)  > 100 µM (inactive)
14  c1ccc2oc(-c3ccc(-c4nc5ccccc5o4)c4c3CC4)nc2c1  > 100 µM (inactive)
15  CC(C)(C)OC(=O)/C=C/[C@@H](CCC(=O)/C=C/[C@H](/C=C\CCCC(=O)O)NC1(c2ccccc2)c2ccccc2-c2ccccc21)O[Si](C)(C)C(C)(C)C   16.5 µM (inactive)
16  COc1ccc(NC(=O)C2=C(SC)C(C#N)C(=O)N=C2N)cc1 (centres undefined)  > 100 µM (inactive)
17  O=c1c2ccccc2nc2n1NC(c1c(Cl)cccc1Cl)N2c1cccc(Cl)c1 (centres undefined)   51.4 µM (inactive)
18  NC(CSCc1ccc(I)cc1)C(=O)O (centres undefined)  > 100 µM (inactive)

---

test system: OVCAR-5; assay: NCI tumour cell line growth inhibition, 48 h
Activity calls are given as the source filed them. No stated cut-off is given here; in the data, active = GI50 up to about 1.1 µM and inactive = higher. Residues, ends and D or L forms follow the SMILES beside them. *: point of attachment. Boc = CC(C)(C)OC(=O)*; OBn = c1ccc(CO*)cc1
outcome measure: GI50

compound	measured
Cc1cc(Cl)cc2c1NC(=O)C2(O)CC(=O)c1ccc(F)cc1 (centres undefined)	> 100 µM (inactive)
COc1cc(/C=N/n2c(-c3ccccc3)nn(C(C)=O)c2=O)cc(OC)c1OC	20 µM (inactive)
CC(C)C(NC(=O)C(Cc1ccccc1)NC(=O)OC(C)(C)C)C(=O)NCC(=O)OCc1ccccc1 (stereo not drawn) (Boc-Phe-Val-Gly-OBn; configuration not given here)	15.1 µM (inactive)
O=C(/C=C\c1ccsc1)c1ccccc1	16.1 µM (inactive)
COc1ccc(C2C(C#N)=C(S)N(C3OC(COC(C)=O)C(OC(C)=O)C(OC(C)=O)C3OC(C)=O)C(C)=C2C(C)=O)cc1 (centres undefined)	> 100 µM (inactive)
CC[C@@]1(O)C(=O)OCc2c1cc1n(c2=O)Cc2cc3c(OC)cccc3nc2-1	0.417 µM (active)
CC(C)=CCC[C@H](C)[C@H]1CC[C@@H](C)c2cc(O)c(C)cc21	16.1 µM (inactive)
NC1(C(=O)O)CCc2ccc(N(CCCl)CCCl)cc2C1 (centres undefined)	39.9 µM (inactive)
C=CCCCCCCCCCCCC1CCC(CC)N1 (centres undefined)	10.6 µM (inactive)

---

system: HL-60; test: NCI tumour cell line growth inhibition, 48 h
Active and inactive are the calls of the source. No stated cut-off is given here; in the data, active = GI50 up to about 1.1 µM and inactive = higher.
Outcome codes: active, inactive

molecule	class
Cc1ccnc(NC(=S)Nc2ccc([N+](=O)[O-])cc2)c1	inactive
CC(=O)N(C(C)=O)C1=C2c3ccccc3N(S(=O)(=O)c3ccccc3)C2n2c(=O)n(-c3ccccc3)c(=O)n2C1 (centres undefined)	inactive
C#CC(O)/C=C/CCCCCCC#CC/C=C\CC#CCCCCCC/C=C/C(O)C#C (centres undefined)	inactive
O=C(CSc1nc2ccc(Cl)cc2c(=O)n1-c1ccccc1)N/N=C1\C(=O)Nc2ccc(F)cc21	inactive
CN(C)CCC(=O)/C=C\c1ccccc1	inactive
O=C(OC[C@H]1O[C@@H](OC(=O)c2cc(O)c(O)c(O)c2)[C@H](OC(=O)c2cc(O)c(O)c(O)c2)[C@@H](OC(=O)c2cc(O)c(O)c(O)c2)[C@@H]1OC(=O)c1cc(O)c(O)c(O)c1)c1cc(O)c(O)c(O)c1	inactive
COC(=O)C12C34C=CC5(CCC6(C=CC1(CC3)O6)C52C(=O)OC)O4 (centres undefined)	inactive
CN(C)CC1CCC/C(=C\c2ccc(OC(=O)/C=C/c3ccccc3)cc2)C1=O (centres undefined)	inactive
OC1COC(n2c3ccc(Br)cc3c3ccc4c5ccccc5[nH]c4c32)C(O)C1O (centres undefined)	inactive
COc1cc2c(cc1OC)C(Cl)C(c1cc(OC)c(OC)c(OC)c1)=C2Cl (centres undefined)	inactive
CC(C)(C)OC(=O)n1c(-c2ccccc2F)cc(=O)c2cc3c(cc21)OCO3	active
C[C@]12CC[C@@H]3c4cc(OCC(F)(F)F)c(O)cc4CC[C@H]3[C@@H]1CC[C@@H]2O	active
CCOC(=O)C1(C(=O)OCC)CN(CC)CN(c2ccccc2)C1	inactive
COc1ccc(OC)c(CC(=O)c2ccc(O)c(C(=O)NCCc3ccc(F)cc3)c2)c1	inactive
CSC1(Cc2ccccn2)C(=O)Nc2cccc([N+](=O)[O-])c21 (centres undefined)	inactive
CCOC(=O)c1c(NC(=O)c2ccccc2)sc2c1CCCC2	inactive
CCOC(=O)c1csc(NC(=O)CCCC#N)n1	inactive
O=C(c1ccc([N+](=O)[O-])cc1)C(Br)C(Br)c1ccnc2ccccc12 (centres undefined)	inactive
COc1cc(C=C(c2ccc(N(C)C)cc2)c2ccc(N(C)C)cc2)c2ccccc2c1OC	inactive

Data provenance is ChEMBL document CHEMBL1201862.
